Test system: PfAP2-EXP AP2 domain (GST-tagged)
Test: gcPBM binding intensity (ln(normalized median fluorescence intensity)); higher = stronger DNA binding
Whole data set: some 25,000 sequences, median “ln(normalized median fluorescence intensity)” near 8.6, cut for the highest 2% near 10. What follows is part of a selection rich in the highest values, with near analogues and random picks from the rest.
Use 9 as the dividing line for gcPBM binding intensity (ln), with the line itself on the T side and lower values as F.

Previously resolved entries follow.
[[record]]
item_sequence = "CTTTAAGTTATATGAAGTACAATTTAAAAAAATGAA [XGTACX_site358]"
qualitative_label = "F"

[[record]]
item_sequence = "TTTTTATAACATAAAAGTACATATTTTTAATTTAAT [XGTACX_site4394]"
qualitative_label = "F"

[[record]]
item_sequence = "AATATTTTATTTTTTCTCATTAAAAATTTTTTTTTT [CACACA_negctrl_site364]"
qualitative_label = "F"

[[record]]
item_sequence = "TATGTATATTTTTTTGTGCACATATATATATATATA"
qualitative_label = "T"

[[record]]
item_sequence = "TATACATATTTCTATTGTACATAAACTAAATCTTCA [XGTACX_site28]"
qualitative_label = "F"


[Q] Check if gcPBM binding intensity (ln) >= 9 (inclusive). Item: TGTATTATATATGTGTGTACATATTTTTTTTTTTTT [XGTACX_site3351]
[A] F

[Q] Please indicate if the recorded gcPBM binding intensity (ln) for AACTGATTATTTTTTTGTACATATATAATAATATAT [XGTACX_site5953] meets or exceeds 9.
[A] F

[Q] gcPBM binding intensity (ln) >= 9 for GATATGTGTATAATATGTACATATATATATATATAT [XGTACX_site6531] ?
[A] T

[Q] Could you please find out whether TTTTGGTTAATTCCCCCCATTACATTATGTCATGTC [CACACA_negctrl_site229] has gcPBM binding intensity (ln) that meets 9 or exceeds it?
[A] T

[Q] Threshold query (gcPBM binding intensity (ln) >= 9) on TTTAAAAAGTTATGAAGTACATATATATATATATAT [XGTACX_site2188]
[A] T

[Q] Reported gcPBM binding intensity (ln) at or above 9? TATAAAATTTTTAAAAGTACATATTTTACATAATAC [XGTACX_site2193]
[A] F

[Q] Quick check: does AGGATACACGGACACACACACATATAGATTTATATA [CACACA_site6552] have gcPBM binding intensity (ln) greater than or equal to 9?
[A] F

[Q] Textbook exercise: given the entry ATAAATATAGGACACACACACATATTATATATATAT [CACACA_site5658] , state whether its gcPBM binding intensity (ln) is greater than or equal to 9.
[A] T

[Q] Hello, I need to know if AGTGTATATAGAAACATACACACATATTAATTTTAC [CACACA_site3127] has measured gcPBM binding intensity (ln) not below 9. Thanks!
[A] F

[Q] For this sequence, is measured gcPBM binding intensity (ln) 9 or higher? TATATATATATATGATGTACACATTTTATTATTTGT [XGTACX_site1147]
[A] T

[Q] Threshold query (gcPBM binding intensity (ln) >= 9) on TCGTGTTTTAAAAAAATGAAGAAAAGTAAAAAAAAA [XGTACX_negctrl_site23]
[A] F

[Q] Determine whether this sequence has gcPBM binding intensity (ln) no lower than 9: AACATTATAGGACACACACACACATATATATATATA [CACACA_site4721]
[A] T

[Q] Form field: gcPBM binding intensity (ln) at least 9? Entry: GAAAAAAAAAAAAAAAAACACACGGTACATTCAAAG [CACACA_site303]
[A] F
